# Tested on: PBMC
# test_name: Human PBMC IL-2 assay
# Format: cell-based
# setup_conditions: anti-CD3/CD28 stimulation overnight, IL-2 level
pEC50: −log10 of the molar value.
value_kind: pEC50

[
  {
    "compound": "CC[C@H](c1ccc(C(F)(F)F)c(Cl)c1)N1C[C@H]2COc3c(c4nc(C#N)ccc4n(C)c3=O)N2C[C@H]1C (stereo in doubt)",
    "observed": 6.32
  },
  {
    "compound": "CC[C@@H]1CN2c3c(c(=O)n(C)c4ccc(C#N)cc34)OC[C@@H]2CN1[C@@H](CC)c1ccc(C(F)(F)F)cc1",
    "observed": 5.76
  },
  {
    "compound": "C[C@@H]1CN2c3c(c(=O)n(C)c4ccc(C#N)nc34)OC[C@@H]2CN1[C@@H](C)c1ccc(F)c(Cl)c1 (stereo in doubt)",
    "observed": 7.05
  }
]
